System: B16F10-Cas9 cells co-cultured with Pmel-1 T cells
Test: Genome-scale CRISPR-Cas9 screen, selection with Pmel-1 T cells
Type: cell-based, mouse
Conditions: Table 3; B16F10-Cas9 cells pre-treated with IFNγ, co-cultured with Pmel-1 T cells 1:1 for three days; negative = depleted, positive = enriched
// reported Pmel+ (sgRNA Log(2) fold change, Pmel-1 selection versus control T cells) per item
endpoint_name: Pmel+ (sgRNA Log(2) fold change, Pmel-1 selection versus control T cells)

INSERT INTO results (sequence_code, numeric_value) VALUES
  ('TCATCTTCGGAGGGCTCAAG (chemistry not fully specified)', 2.75),
  ('TTCAGATTCAGACATCAGAT (chemistry not fully specified)', 0.00),
  ('CGGCCCGCCGATGTCGTGTG (chemistry not fully specified)', -0.25),
  ('CCTCCGACATTCCGTAACTG (chemistry not fully specified)', -1.90),
  ('TTTACAATCCTCCAAAGTCG (chemistry not fully specified)', -0.68),
  ('TCTTGAAAACTATAGTACTC (chemistry not fully specified)', -2.12),
  ('GGTATTCCCAGCATACGACA (chemistry not fully specified)', 5.25),
  ('CGGGTATTACAGACTAACTG (chemistry not fully specified)', 3.20),
  ('TCGGCTTCCCATTCTCCGGT (chemistry not fully specified)', 4.33),
  ('CCATATCCAAATAGCCACAG (chemistry not fully specified)', -2.19),
  ('TAGCCGACAGAGATGTACCG (chemistry not fully specified)', 3.52),
  ('GCTCAAGTACTCGCCCGACC (chemistry not fully specified)', -0.69),
  ('GCACTGCTCTCATAACCCAT (chemistry not fully specified)', 3.01),
  ('TAAGCGTTGTTGACTACATG (chemistry not fully specified)', 0.00),
  ('CTGCAGCATATCGTCAACCA (chemistry not fully specified)', -0.72),
  ('TTGTCCGCGTTACTTCCCTG (chemistry not fully specified)', 0.07),
  ('TGGAATTATGGTCAAAGTAG (chemistry not fully specified)', 0.96),
  ('TTACACGACCCGAATAGCGA (chemistry not fully specified)', 3.22),
  ('ATGAGGTACAGCAGAAAGGT (chemistry not fully specified)', 0.90),
  ('GAAGACCAAAGAAGTTCATG (chemistry not fully specified)', 2.37),
  ('TGAAGCTAATGACCATGAGC (chemistry not fully specified)', -0.59),
  ('GCTCGATGGATAGCATTCAC (chemistry not fully specified)', 0.17);

The reported numbers originate from patent US11820822B2.
